Numbers sourced from the supplement of paper PMC10949913.

Test system: CU-ACC1
assay summary: area under concentration-response curve (viability) (AUC (a.u.)); higher = less active
condition description: 48 h
Given measured area under concentration-response curve, output true (1) if it is greater than or equal to 500 and false (0) if not.

Cc1nc[nH]c1CN1CCN(C(=O)N[C@@H](CC(C)C)C(=O)O)[C@@H](Cc2ccccc2)C1=O
true (1)
CC(C)C[C@H](CN)CC(=O)O
false (0)
COC1(c2sc3c(N4CCOCC4)nc(-c4cnc(N)nc4)nc3c2C)COC1
false (0)

Evaluate `Cc1ccc2nc(NCCN)c3ncc(C)n3c2c1` : area under concentration-response curve at minimum 500?
false (0)

`NC(=O)c1ccc(I)c([N+](=O)[O-])c1` ?
true (1)

Follow-up item: `CN1CC[C@H]([C@@H]1CO)C2=C3OC(=C/C(=O)C3=C(O)C=C2O)\C4=C(Cl)C=C(C=C4)C(F)(F)F`
false (0)

Continue with `COc1cc2c(Nc3ccc(Cl)c(Cl)c3F)ncnc2cc1OC[C@@H]1C[C@@H]2CN(C)C[C@@H]2C1`
false (0)

* * *

System: NCI-H295R
assay summary: AC50 viability; higher = less potent
condition description: 48 h
AC50 viability less than 10 µM is Criterion met; AC50 viability greater than or equal to 10 µM is Criterion not met.

Solved cases (6 shown):
C=CC(=O)Nc1cccc(Nc2nc(Nc3ccc(NC4CN(CCF)C4)cc3OC)ncc2C(F)(F)F)c1
Criterion met
CNC(=O)c1ccc(Nc2ncc(C(F)(F)F)c(NCc3nccnc3N(C)[S+](C)(=O)[O-])n2)cc1
Criterion met
CCN(CC)Cc1ccc2cc(COC(=O)Nc3ccc(C(=O)NO)cc3)ccc2c1
Criterion met
C=C1/C(=C\C=C2/CCC[C@]3(C)[C@@H]([C@H](C)/C=C/[C@H](C)C(C)C)CC[C@@H]23)C[C@@H](O)C[C@@H]1O
Criterion met
OC1=CC2=C(C(=C1)O)C(=O)\C=C(/O2)C3=CC=CC=C3
Criterion met
Cc1ccc(C(C)(O)c2nc3ccccc3s2)c(C)c1 (stereo unspecified)
Criterion not met

Consider the molecule `c1ccc2c(CCNc3ccc(Nc4ccncc4)cc3)c[nH]c2c1` . Is its AC50 viability strictly less than 10 µM?
Criterion met

Also check `Cc1cc(C)c([S+](=O)([O-])N(CCc2cccc(Br)c2)Cc2ccc(-c3cccc([S+](C)(=O)[O-])c3)cc2)c(C)c1`
Criterion met

And then `Cc1cc(Nc2nc(N[C@@H](C)c3ncc(F)cn3)ncc2Cl)n[nH]1` , what is it?
Criterion not met

Same read-out for `N#Cc1cc2cc(CN3CCC(Nc4ncnc5sc(CC(F)(F)F)cc45)CC3)c(O)cc2n1Cc1cn[nH]c1` ?
Criterion not met

Moving on to `CC[C@]1(O)C[C@H]2CN(CCC3=C([NH]C4=C3C=CC=C4)[C@@](C2)(C(=O)OC)C5=CC6=C(C=C5OC)N(C=O)[C@H]7[C@](O)([C@H](OC(C)=O)[C@]8(CC)\C=C/CN9CC[C@]67[C@H]89)C(=O)OC)C1`
Criterion met

Ok, now `COc1cc2ncnc(Nc3cccc(Cl)c3)c2cc1OC`
Criterion not met

* * *

Test system: CU-ACC1
assay summary: area under concentration-response curve (viability) (AUC (a.u.)); higher = less active
condition description: 48 h
Quick rule: area under concentration-response curve of at least 500 means 1, below that means -1.

Below, 10 molecules whose answers are already recorded.
CN(C(=O)CNC(=O)/C=C/c1cccc(Cl)c1)C1CC[S+](=O)([O-])CC1 (configuration not stated)
-1
Cc1c[nH]c(/C=C2\C(=O)Nc3ccccc32)c1CCC(=O)O
-1
Cc1ccc([S+](=O)([O-])OCC(=O)Nc2ccc(C(=O)O)c(O)c2)cc1
1
NC(=O)c1cnc2[nH]ccc2c1NC1C2CC3C[C@H]1CC(O)(C3)C2 (some centres not stated)
1
CCc1cncnc1N1CCN(Cc2nc3cc(C(F)(F)F)ccc3[nH]2)CC1
-1
Cc1ccc(NC(=O)c2ccc3c(c2)OCCO3)cc1NC(=O)c1ccc2nc(OCCN3CCCC3)ccc2c1
-1
C[S+](=O)([O-])N1CCC(NC(=O)c2[nH]ncc2NC(=O)c2c(Cl)cccc2Cl)CC1
-1
C[Se]CCC(N)C(=O)O (configuration not stated)
1
O=C(Nc1cc(C(F)(F)F)cc(C(F)(F)F)c1)c1cc(Cl)ccc1O
-1
CN(C)CCOc1ccc(-c2nc(-c3ccncc3)c(-c3ccc4c(c3)CC/C4=N\O)[nH]2)cc1
-1

Answer whether area under concentration-response curve of `CCOC(=O)[C@H]1O[C@@H]1C(=O)N[C@@H](CC(C)C)C(=O)NCCC(C)C` is greater than or equal to 500.
1

Also need `COCCOC1=CN=C2\C=C/N([C@H](C)C3=NN=C4[N]3C=C(C=C4F)C5=C[N](C)N=C5)C(=O)C2=C1` , thanks.
-1

Next: `COc1ccc(OC)c(-c2nnc3ccc(-c4ccc(OC)c(O[C@@H]5CCOC5)c4)nn23)c1`
-1

Ok, now `CNC(=O)c1cccc(-c2ccc3c(N4CCOC[C@@H]4C)nc(N4CCOC[C@@H]4C)nc3n2)c1`
-1

Then what about the molecule `OC[C@H]1O[C@@H](OC2=CC3=C(C=C2)C(=O)\C(=C/O3)C4=CC=C(O)C=C4)[C@H](O)[C@@H](O)[C@@H]1O` ?
1

Follow-up entry: `CCC(=O)N[C@H]1CC[C@H](C(=O)N(C)c2ccc(-c3nc4ccccc4o3)cc2)C1`
1

Input `C=CC[C@@H]1/C=C(\C)C[C@H](C)C[C@H](OC)[C@H]2O[C@@](O)(C(=O)C(=O)N3CCCC[C@H]3C(=O)O[C@H](/C(C)=C/[C@@H]3CC[C@@H](O)[C@H](OC)C3)[C@H](C)[C@@H](O)CC1=O)[C@H](C)C[C@@H]2OC`
-1

Continue with `C[C@@H]1O[C@@H](O[C@H]2C[C@@H](O)[C@]3(CO)[C@H]4[C@H](O)C[C@]5(C)[C@H](CC[C@]5(O)[C@@H]4CC[C@]3(O)C2)C/6=C/C(=O)OC6)[C@H](O)[C@H](O)[C@H]1O`
-1

Moving on to the next molecule: `CC[S+](=O)([O-])N1CCN(c2ccc(Nc3ncc(C(N)=O)c(NC4CC4)n3)cc2)CC1`
-1

Entry to check: `O=C(Nc1cnccc1Cl)N1CCN(Cc2ccc3c(c2)OC(F)(F)O3)CC1`
-1

Do the same for `CC[C@@H]1[C@H](F)C(=O)N[C@@H]1COc1nccc2cc(C(N)=O)c(OC)cc12` please
-1

Now consider `CNC(=O)Nc1ccc(-c2nc(N3CC4CCC(C3)O4)c3cnn(C4CCC5(CC4)OCCO5)c3n2)cc1` and answer again.
-1

Further, for C[C@@H](C1CC[C@@]2(O)C3=CC(=O)[C@@H]4C[C@@H](O)[C@@H](O)C[C@]4(C)[C@H]3CC[C@]12C)[C@H](O)CCC(C)(C)O (some centres not stated) ?
-1

Request: `CN1\C(=C([O-])/C2=CC=CC=C2[S+]1([O-])=O)C(=O)NC3=NC=C(C)S3`
-1

// query: `CCc1cnn2c(NCc3ccc[n+]([O-])c3)cc(N3CCCC[C@H]3CCO)nc12`
-1

* * *

System: NCI-H295R
assay summary: area under concentration-response curve (viability) (AUC (a.u.)); higher = less active
condition description: 48 h
Listed here: items and their measured area under concentration-response curve.
The reply should be a number, written without any unit.

O=C1c2c(O)cc(O)cc2O[C@H](c2ccc(O)c(O)c2)[C@H]1O
539

Endpoint output: area under concentration-response curve of `O=C(O)c1ccc2c(c1)nc(Nc1cccc(Cl)c1)c1ccncc12` . Value?
509

// same read-out, input: CC1CC2=CC=CC=C2N1C(=O)C\C3=N\C(=O)\C=C(/N3)N4CCOCC4 (configuration not stated)
548

Query `COC(=O)c1ccc2c(c1)NC(=O)/C2=C(\Nc1ccc(N(C)C(=O)CN2CCN(C)CC2)cc1)c1ccccc1` next
483

Entry to check: `CCC/1=C/C2=C(C(=O)N1CC(=O)C3=CC=CC=C3)C(=C([N]2C)C(=O)NC4CCN(CC4)C(=O)CO)OCC(F)(F)F`
594

Entry `COC/1=C/[C@@H]2[C@@H]3CC4=C(C(=C(OC)C=C4)O)[C@]2(CCN3C)CC1=O` please
479

* * *

System: NCI-H295R
assay summary: area under concentration-response curve (viability) (AUC (a.u.)); higher = less active
condition description: 48 h
As shown below, each of these compounds has a reported area under concentration-response curve value.

Below: 10 compounds and their reported area under concentration-response curve.
COc1ccc2[nH]cc(CCNC(C)=O)c2c1
578
CCCCc1nc2cc(/C=C/C(=O)NO)ccc2n1CCN(CC)CC
453
Oc1cc2c(cc1O)C1c3ccc(O)c(O)c3OCC1(O)C2 (stereo not drawn)
527
OCCNC1CCCc2c1[nH]c1ccc(-c3ccccc3)cc21 (stereo not drawn)
456
COC/1=C/C=C2\C(=C/C1=O)[C@H](CCC3=CC(=C(OC)C(=C23)OC)OC)NC(C)=O
480
Cc1cc(Cl)ccc1OCCCC(=O)NO
495
CC(C)(C)C(=O)CN1C(=O)[C@H](NC(=O)Nc2cccc(C(=O)O)c2)CN(C2CCCCC2)c2ccccc21
559
COC1=CC=C(C=C1O)C/2=C/C(=O)C3=C(O2)C=C(O[C@@H]4O[C@H](CO[C@@H]5O[C@@H](C)[C@H](O)[C@@H](O)[C@H]5O)[C@@H](O)[C@H](O)[C@H]4O)C=C3O
554
O=C1CCC(N2C(=O)c3ccccc3C2=O)C(=O)N1 (stereo not drawn)
538
CC(C)N1C(=O)NC(=C/C1=O)\N[C@@H](C)C2=CC=CC=C2
497

Look up area under concentration-response curve: `COC/1=C(\CNC(=O)C2=C(C)[N]([C@H](C)C3CCOCC3)C4=CC=CC=C24)C(=O)NC(=C1)/C`
429

Follow-up item: `Cc1ccc(C(N)=O)cc1Nc1nccc(-c2cn(C(C)C)c3cnccc23)n1`
522

Now give it for `O=C(c1cncc(Br)c1)N1CCC(N2CCCC2)CC1` too.
528

Quick one: `Cc1cc(-c2ncc(CC(=O)Nc3ccc(-c4cnccn4)cn3)cc2C)ccn1`
500

And then `OC1=CC(=C(C=C1)\C2=C(O)\C(=O)C3=C(O2)C=C(O)C=C3O)O` , what is it?
591

Same again, this time with `O=C1[C@H](Cc2ccc(O)cc2)N2C(=O)CCN(C(=O)NCc3ccccc3)[C@H]2CN1Cc1cccc2ccccc12`
496

Next compound: `Cc1n[nH]c2ncc(C(=O)N3CCC[C@H]3c3ccc(Cl)cc3)cc12`
503

How about this compound: `CC1(C)CCC(=C(\C1)C2=CC=C(Cl)C=C2)/CN3CCN(CC3)C4=CC(=C(C=C4)C(=O)N[S+]([O-])(=O)C5=CC=C(NCC6CCOCC6)C(=C5)[N+]([O-])=O)OC7=CN=C8[NH]C=CC8=C7`
478
